- assay_text: Human HepG2 cell viability assay in 384 well format
- Type: toxicity, cell-based
- Parameters: dose 125 nL, time 70.5 hour; concentration not given beside the values
- assay_conditions: HepG2 cells, read-out: Inhibition
endpoint: cytotoxicity at 70.5 h (%)
Respond numerically; units are % and should not be typed.

Solved cases (5 shown):
{"columns": ["compound", "cytotoxicity at 70.5 h / %"],
 "data": [
  ["CCCNCc1cn(Cc2ccccc2)nc1-c1cccnc1", -8.99],
  ["CCOC(=O)C1(CCOC)CCCN(Cc2nccn2CC)C1 (stereo unspecified)", -18.3],
  ["CCCc1nc(Nc2cccc(C(N)=O)c2)c2c(n1)c(C)nn2CC", -4.15],
  ["Cc1ccc(-c2nc(CN3CCOCS3(=O)=O)c(C)o2)cc1", -0.637],
  ["CN(C)c1cc(C(=O)N2CCN(c3cc(C#N)ccn3)CC2)ccn1", -16.5]
]}

The value of cytotoxicity at 70.5 h measured for the compound "COc1cc(Cl)c(C)cc1-n1nnc(C(=O)O)c1-c1ccncc1" turned out to be 28.1

====

- assay_text: Human HepG2 cell viability assay in 384 well format
- Assay type: toxicity, cell-based
- Design: dose 125 nL, time 70.5 hour; concentration not given beside the values
- assay_conditions: HepG2 cells, read-out: Inhibition
endpoint: cytotoxicity at 70.5 h (%)
Response body: numeric value in %, unit text excluded.

Below are worked cases with known answers.
{"columns": ["molecule", "units_of_measure", "cytotoxicity at 70.5 h"],
 "data": [
  ["O=C(NC1CC2(CCN(CCO)CC2)c2ccccc21)c1ccncc1 (stereo not drawn)", "%", -5.59],
  ["COCC(=O)N(Cc1cccnc1)CC1CCCN(C2CCCCC2)C1 (stereo not drawn)", "%", -5.51],
  ["Cn1ncc2c1CCCN(C(=O)C1CC1)C2", "%", 14.3],
  ["C[S+]([O-])c1nncn1CC(=O)c1ccc(OC(F)F)cc1 (stereo not drawn)", "%", -2.01],
  ["COCCC1(C(=O)O)CCN(c2cc(C)c3ccccc3n2)CC1", "%", 18.8]
]}

Shift focus to the following entry.
Value of cytotoxicity at 70.5 h reported for the molecule "Cc1ncccc1OC1(C(=O)NCCCN2CCOCC2)CCNCC1" is -11.7

====

- assay_text: Human HepG2 cell viability assay in 384 well format
- Assay type: toxicity, cell-based
- Parameters: dose 125 nL, time 70.5 hour; concentration not given beside the values
- assay_conditions: HepG2 cells, read-out: Inhibition
endpoint: cytotoxicity at 70.5 h (%)
Lab book: enter the figure in %, no units written.

These solved cases illustrate the format of a correct answer.
{"columns": ["molecule", "experimental_value"],
 "data": [
  ["O=C(c1ccc(=O)[nH]c1)N1CCc2c(nc(-c3cccnc3)[nH]c2=O)C1", -3.02],
  ["CCOc1ccc(Br)cc1S(=O)(=O)N(CC)Cc1ccc(N(C)C)cc1", -3.07],
  ["COc1cccc(CNc2cc(CO)ccc2Cl)c1", -8.65],
  ["OCc1cccc(CNCc2cccc3c2OCCO3)c1", -1.29],
  ["CN1CCN(c2ccc(Br)cc2NC(=O)c2ccco2)CC1", 2.12]
]}

API: the following record is the query input.
The molecule listed as O=C1NCCCC1NC(=O)C1(c2cccc(Cl)c2)CCC1 (configuration not stated) shows cytotoxicity at 70.5 h equal to -0.27
